Data credit: patent US6683103B2

- Assay target: human ETB receptor (Homo sapiens)
- Construct: expressed in transfected cells; host or cells: COS7 cells
- Sequence (P24530 27-442): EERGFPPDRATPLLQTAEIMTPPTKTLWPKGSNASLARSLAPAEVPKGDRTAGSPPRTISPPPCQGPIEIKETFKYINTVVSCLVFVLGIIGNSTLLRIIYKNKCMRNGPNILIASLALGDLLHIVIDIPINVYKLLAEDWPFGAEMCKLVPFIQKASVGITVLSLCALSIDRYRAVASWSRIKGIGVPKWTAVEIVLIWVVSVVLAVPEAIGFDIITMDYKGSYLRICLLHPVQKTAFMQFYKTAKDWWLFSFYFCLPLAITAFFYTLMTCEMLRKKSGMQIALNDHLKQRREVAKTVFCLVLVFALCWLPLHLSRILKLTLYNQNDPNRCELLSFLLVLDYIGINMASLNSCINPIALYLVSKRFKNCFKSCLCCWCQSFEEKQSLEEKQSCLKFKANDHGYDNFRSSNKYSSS
- Experiment description: Binding Test #2: inhibition of 125I-ET-1 binding to ETB receptors (transfected COS7 cell membranes)
- Condition context: Table 1; incubation at 4° C.; read-out: ETB
pIC50: −log10 of the molar value.
Measured parameter: pIC50

Cc1noc(NS(=O)(=O)c2c(Cl)sc(Cl)c2Br)c1Br; 4.98
Cc1noc(NS(=O)(=O)c2ccc(Sc3ccccc3)o2)c1Br; 5.15

====

The following molecules are listed with their measured pIC50 values.
- Assay target: human ETB receptor (Homo sapiens)
- Construct: expressed in transfected cells; host or cells: COS7 cells
- Sequence (P24530 27-442): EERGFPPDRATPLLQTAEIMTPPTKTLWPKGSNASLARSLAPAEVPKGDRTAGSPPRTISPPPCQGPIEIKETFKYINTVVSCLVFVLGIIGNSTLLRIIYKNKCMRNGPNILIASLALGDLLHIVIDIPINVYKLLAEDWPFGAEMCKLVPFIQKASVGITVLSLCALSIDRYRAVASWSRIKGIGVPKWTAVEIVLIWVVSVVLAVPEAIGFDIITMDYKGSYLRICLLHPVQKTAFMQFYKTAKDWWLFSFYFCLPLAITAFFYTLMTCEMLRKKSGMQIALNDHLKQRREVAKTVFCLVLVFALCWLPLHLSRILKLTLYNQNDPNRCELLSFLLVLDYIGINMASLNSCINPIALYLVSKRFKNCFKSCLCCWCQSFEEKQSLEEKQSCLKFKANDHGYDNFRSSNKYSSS
- Experiment description: Binding Test #2: inhibition of 125I-ET-1 binding to ETB receptors (transfected COS7 cell membranes)
- Condition context: Table 1; incubation at 4° C.; read-out: ETB
pIC50: −log10 of the molar value.

# example entries with known answers
Cc1noc(NS(=O)(=O)c2ccsc2C(=O)Nc2ccccc2)c1C; ~3.77
Cc1noc(NS(=O)(=O)c2c(C)sc(C)c2-c2ccccc2)c1Br; ~4.00

API: the following record is the query input.
// query pIC50 value for entry Cc1noc(NS(=O)(=O)c2ccsc2C(=O)O)c1C
< 4.00
